Reference for the values: the supplement of paper PMC10290057

# Test system: HCT116;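 note: Luminescence-based viability readout, five doses per compound, normalized against on-plate DMSO and empty-well controls, followed by dose-response curve fitting for every drug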
# Assay Summary: efficacy (fitted maximal change in viability relative to DMSO control); higher = less cytotoxic (negative = loss of viability)
# Conditions: 48 h
# label = TRUE if efficacy >= -60% else FALSE

Reference set, count: 6
Compound	Group Label
COc1ccc([C@@H]2CC(=O)c3c(O)cc(O[C@@H]4O[C@H](CO[C@@H]5O[C@@H](C)[C@H](O)[C@@H](O)[C@H]5O)[C@@H](O)[C@H](O)[C@H]4O)cc3O2)cc1O [Aurantiamarin (Methyl Hesperidin)]	TRUE
CNC(=O)C1=CC=C(C)C(=C1)N2C(=C/C(=C(/Br)C2=O)OCC3=C(F)C=C(F)C=C3)\C	TRUE
O=C(/C=C/c1cccc([S+](=O)([O-])Nc2ccccc2)c1)NO	FALSE
C[C@H]1C[C@@H](n2c(Nc3ccc(OC(F)(F)F)cc3)nc3cc(CCC(=O)O)ccc32)CC(C)(C)C1	FALSE
O=C(Nc1ccncc1)C(=O)c1cn(Cc2ccc(Cl)cc2)c2ccccc12	FALSE
C[C@]1(C(=O)N(CCCC(=O)O)Cc2cccc(Cl)c2)CCN1C(=O)c1csc2ccccc12	TRUE

Could you tell me if the measured efficacy of O=C(Nc1nc2ccccc2n1CCN1CCOCC1)c1cccc([N+](=O)[O-])c1 reaches -60% or more?
FALSE

Could you tell me if the measured efficacy of Cc1c(CN2CCC(Nc3ncnc4sc(CC(F)(F)F)cc34)CC2)ccc2c1cc(C#N)n2Cc1cn[nH]c1 reaches -60% or more?
FALSE

Could you tell me if the measured efficacy of OC1=CC=C(C=C1)\C2=C\OC3=C(C(=CC(=C3)O)O)C2=O reaches -60% or more?
TRUE

Could you tell me if the measured efficacy of Cn1cc(-c2ccc([S+](=O)([O-])n3ccc(/C=C/C(=O)Nc4ccccc4N)c3)cc2)cn1 reaches -60% or more?
FALSE

Could you tell me if the measured efficacy of CCCCCCCc1ccc(CCc2cccc(O)c2C(=O)O)cc1 reaches -60% or more?
TRUE

Could you tell me if the measured efficacy of NC(=O)[C@@H](CC1CC1)[C@@H](CCC(F)(F)F)C(=O)N[C@H]2\N=C(C3=CC=CC=C3)/C4=CC=CC(=C4NC2=O)F reaches -60% or more?
TRUE

Could you tell me if the measured efficacy of Cn1cc(-c2ccc3c(c2)CCN3C(=O)Cc2cccc(C(F)(F)F)c2)c2c(N)ncnc21 reaches -60% or more?
TRUE

Could you tell me if the measured efficacy of C[C@H]1COC2=C3N1\C=C(C(O)=O)/C(=O)C3=CC(=C2N4CCN(C)CC4)F reaches -60% or more?
TRUE
